- Test system: Danio rerio larvae (5 dpf)
- assayMethodText: combined upward orientation toward moving lines (periods 7-14) minus DMSO control (percentage points); higher = more orientation with moving lines than DMSO larvae
- assayContext: 10 µM; exposure time: 3 h pre-incubation + 3 h imaging
Counter-ions that a name gives are not always drawn.
// classify(record): look up combined upward orientation toward moving lines in ranges low band (below -3), middle band (-3 to below 0.6), high band (0.6 or more)

Reference set (5 entries):
{"compound": "COc1ccc(C[C@@H](C)NC[C@H](O)c2ccc(O)c(NC=O)c2)cc1 [Arformoterol tartrate]", "assaySystem": "Danio rerio larvae (5 dpf)", "classLabel": "high band"}
{"compound": "CN(C)CCC[C@@]1(c2ccc(F)cc2)OCc2cc(C#N)ccc21 [Escitalopram oxalate]", "assaySystem": "Danio rerio larvae (5 dpf)", "classLabel": "middle band"}
{"compound": "CN(CCOc1ccc(NS(C)(=O)=O)cc1)CCc1ccc(NS(C)(=O)=O)cc1 [Dofetilide]", "assaySystem": "Danio rerio larvae (5 dpf)", "classLabel": "low band"}
{"compound": "CCc1c2c(nc3ccc(OC(=O)N4CCC(N5CCCCC5)CC4)cc13)-c1cc3c(c(=O)n1C2)COC(=O)[C@]3(O)CC", "assaySystem": "Danio rerio larvae (5 dpf)", "classLabel": "low band"}
{"compound": "CCOc1nc2cccc(C(=O)O)c2n1Cc1ccc(-c2ccccc2-c2noc(=O)[nH]2)cc1 [Azilsartan]", "assaySystem": "Danio rerio larvae (5 dpf)", "classLabel": "high band"}

Data request: Where would Cc1nnc(C(C)C)n1C1C[C@H]2CC[C@@H](C1)N2CC[C@H](NC(=O)C1CCC(F)(F)CC1)c1ccccc1 (stereo in doubt) [Maraviroc] land among the classes by reported combined upward orientation toward moving lines?
Data returned: middle band

Data request: # bin label for O=C(O)c1cc(/N=N/c2ccc(S(=O)(=O)Nc3ccccn3)cc2)ccc1O [Sulfasalazine]
Data returned: low band

Data request: Textbook exercise: identify the category of the compound given here, `CCCCCCCCc1ccc(CCC(N)(CO)CO)cc1` , according to its measured value.
Data returned: low band

Data request: // return the class label for CCOc1nc2cccc(C(=O)O)c2n1Cc1ccc(-c2ccccc2-c2nnn[nH]2)cc1 [Candesartan]
Data returned: high band

Data request: Please classify: O=C(O)CCCc1ccccc1 [Sodium 4-Phenylbutyrate]
Data returned: low band

Data request: Class? Entry: COc1cc(Nc2c(C#N)cnc3cc(OCCCN4CCN(C)CC4)c(OC)cc23)c(Cl)cc1Cl [Bosutinib]
Data returned: middle band

Data request: In plain terms, what class is C[C@H](Cc1cc2c(c(C(N)=O)c1)N(CCCO)CC2)NCCOc1ccccc1OCC(F)(F)F [Silodosin] ?
Data returned: low band

Data request: For this compound, which bin applies? Cc1ccc(-c2cc(C(F)(F)F)nn2-c2ccc(S(N)(=O)=O)cc2)cc1 [Celecoxib]
Data returned: low band

Data request: Band of COc1c(C)c2c(c(O)c1C/C=C(\C)CCC(=O)OCCN1CCOCC1)C(=O)OC2 [Mycophenolate mofetil] ?
Data returned: high band

Data request: Any idea which band CC(CCc1ccc(O)cc1)NCCc1ccc(O)c(O)c1 (stereo unspecified) [Dobutamine hydrochloride] is in?
Data returned: high band

Data request: Which bin should I file C[C@@H](O[C@H]1OCCN(Cc2n[nH]c(=O)[nH]2)[C@H]1c1ccc(F)cc1)c1cc(C(F)(F)F)cc(C(F)(F)F)c1 [Aprepitant] under?
Data returned: high band
